Where do these numbers come from? They come from PubChem BioAssay (NCI).

- Tested on: SK-MEL-2 melanoma
- method_notes: NCI tumour cell line growth inhibition, 48 h; in the data active means GI50 below about 0.43 µM; inactive means the rest
Write down the outcome that applies. Available outcomes: T (active), F (inactive)

Some entries whose results are on file:
CCN(CC)CCCCNc1c2ccccc2[n+](C)c2c1[nH]c1ccccc12	T
COc1cc(C[C@H]2c3cc(OC)c(OC)cc3CCN2C)c(Oc2cc3c(cc2OC)-c2c(OC)c(OC)cc4c2[C@H](C3)N(C)CC4)cc1OC	F
Fc1ccc2c(c1)C1=NN(c3ccccc3)C(F)C1CO2 (stereo not given)	F
C=C1CCC2C3(C)COC(c4ccc(N(C)C)cc4)OC3CCC2(C)C1C/C=C1/C(=O)OCC1O (stereo not given)	F

Let's switch to this compound now.
Ask: Which outcome was assigned to `CC(C)(C)c1ccc(Oc2nccc(-c3c(-c4ccc(F)cc4)ncn3C3CCNCC3)n2)cc1` in this test?
Result: F

----------
- System: SR leukemia
- method_notes: NCI tumour cell line growth inhibition, 48 h
measurement_type: TGI (µM)
Write it as a number; the unit µM goes unstated.

C=CCOc1cccc(C2(O)c3ccccc3C3=NCCCN32)c1 (stereo not given)	32.6

API: the following record is the query input.
Ask: What measured TGI goes with `c1ccc2[nH]c(-c3ccc(-c4nccc5c4[nH]c4ccccc45)cc3)nc2c1` ?
Result: 6.36

----------
- Tested on: NCI-H522 lung
- method_notes: NCI tumour cell line growth inhibition, 48 h
measurement_type: TGI

Answered cases to consult:
Nc1ncnc2nc[nH]c12	220 µM
COC(=O)[C@@H]1CN(C(C)=O)C(=O)N1	> 100 µM
COc1ccc2cc(C(=O)/C=C/c3ccc(Cl)cc3Cl)ccc2c1	85.5 µM

Ask: Need TGI of `COc1ccc(/C(COc2ccc3c(=O)cc(-c4ccccc4)oc3c2)=N\O)cc1` , thanks.
Result: 26.6 µM

Ask: Item under review: `Cn1cc2ccccc2c1-c1nc(F)nc(F)n1` . Reported TGI?
Result: > 100 µM

Ask: Need TGI, item `CCOC(CN(C)C(=O)Nc1cccc2ccccc12)OCC`
Result: > 10 µM

----------
- Test system: UO-31 renal
- method_notes: NCI tumour cell line growth inhibition, 48 h
measurement_type: TGI

COc1ccc(Nc2nnc(-c3nsc4ccccc34)s2)cc1	35 µM

Ask: Request body: readout TGI, system UO-31 renal, query O=c1[nH]c2cc([N+](=O)[O-])ccc2nc1/C(=N/Nc1ccccc1)C(O)c1ccccc1Cl (stereo unspecified) . Return the value.
Result: > 100 µM

Ask: Give UO-31 renal TGI for `COc1cc(O)c2c(=O)cc(-c3ccc(O)cc3O)oc2c1CC=C(C)C`
Result: 33.5 µM

Ask: Fill in the recorded TGI for this compound, with UO-31 renal as test system: `CN1C(=Nc2ccccc2)SC1=Nc1ccccc1`
Result: > 100 µM

Ask: API: value(readout= TGI, system= UO-31 renal, query= `O=C(c1cccs1)N(C(=S)N1CCN(c2ccccn2)CC1)c1ccccc1` )
Result: > 100 µM

Ask: Quick check: TGI on UO-31 renal, item Cc1nc2ccccc2n1COC(Cn1ccnc1)c1ccc(Cl)cc1Cl (stereo unspecified) ?
Result: > 100 µM

----------
The following compounds are listed with their measured TGI values.
- Test system: SNB-75 CNS
- method_notes: NCI tumour cell line growth inhibition, 48 h

Cc1nc2ccccc2n1COC(Cn1ccnc1)c1ccc(Cl)cc1Cl (stereo not drawn)	> 100 µM
O=C(O)c1cc([N+](=O)[O-])cc2c(=O)c3cnccc3[nH]c12	> 100 µM
COc1ccc(/C(COc2ccc3c(=O)cc(-c4ccccc4)oc3c2)=N\O)cc1	> 45.9 µM
C(#Cc1ccccc1C#Cc1cccs1)c1cccs1	> 100 µM

Ask: Hello, I am looking for reported TGI with SNB-75 CNS for `C/C(CC(=O)Nc1ccc([N+](=O)[O-])cc1)=N\NC(N)=O` . Could you help?
Result: > 100 µM

Ask: Missing value: TGI, SNB-75 CNS, entry `CC1=NN(C(=O)c2ccccc2O)C(=O)/C1=C/c1ccco1` . Fill in?
Result: 69.4 µM

Ask: Form: Entry = `O=C(CCCCCCCCC(=O)N/N=C\c1ccccc1O)N/N=C\c1ccccc1O` | System = SNB-75 CNS | TGI = ____
Result: 15.3 µM
